biological target: Serine/threonine-protein kinase B-raf [V600E] (Homo sapiens, UniProt P15056, V600E); assay: Raf/Mek Amplified Luminescence Proximity Homogeneous Assay; conditions: pH 7.5
Sequence (P15056 2-766 V600E limits assumed): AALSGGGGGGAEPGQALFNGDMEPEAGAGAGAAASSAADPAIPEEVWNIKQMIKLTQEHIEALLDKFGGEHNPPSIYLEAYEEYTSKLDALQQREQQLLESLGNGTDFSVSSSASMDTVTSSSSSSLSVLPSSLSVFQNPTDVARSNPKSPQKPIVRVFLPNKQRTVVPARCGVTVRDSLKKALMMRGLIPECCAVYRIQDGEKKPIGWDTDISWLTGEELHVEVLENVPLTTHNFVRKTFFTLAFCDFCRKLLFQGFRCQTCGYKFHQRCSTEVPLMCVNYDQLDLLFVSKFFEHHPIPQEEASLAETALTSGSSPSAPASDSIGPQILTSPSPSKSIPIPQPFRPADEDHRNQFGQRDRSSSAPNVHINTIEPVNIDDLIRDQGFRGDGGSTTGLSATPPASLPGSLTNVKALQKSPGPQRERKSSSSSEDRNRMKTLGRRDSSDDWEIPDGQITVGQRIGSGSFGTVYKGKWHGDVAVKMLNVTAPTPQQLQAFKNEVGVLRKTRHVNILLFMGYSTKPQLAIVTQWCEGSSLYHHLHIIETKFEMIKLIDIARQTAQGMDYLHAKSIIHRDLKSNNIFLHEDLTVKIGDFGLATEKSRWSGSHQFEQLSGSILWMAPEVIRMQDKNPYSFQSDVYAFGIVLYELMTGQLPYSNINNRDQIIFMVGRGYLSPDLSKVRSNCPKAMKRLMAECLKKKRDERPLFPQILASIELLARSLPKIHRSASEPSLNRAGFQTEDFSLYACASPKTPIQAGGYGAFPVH
readoutKind: pIC50
On this scale, pIC50 is minus log10 of a concentration expressed in M (mol/L).

Qu. Report pIC50 from Serine/threonine-protein kinase B-raf [V600E] (Homo sapiens, UniProt P15056, V600E) testing of COC(=O)N[C@@H](C)CNc1nccc(-c2nc(C(C)(C)C)[nH]c2-c2cc(Cl)cc(NS(=O)(=O)C(F)(F)F)c2)n1
Ans. 6.63
